All values here come from ChEMBL document CHEMBL5058577.

Tested on: HEK-293T
assay.info: Multiplex assay against HEK293T
Type: toxicity, cell-based
condition.set: human, 12 h, 10 µM, compound concentration 10 uM, replicate 2
quantity: Population Healthy Nuclei (%)
All answers are understood in %, so give the number only.

Can you look up the measured Population Healthy Nuclei (%) of Cl.N=C(N)NC(=O)Cc1c(Cl)cccc1Cl [GUANFACINE HYDROCHLORIDE] for me?
77

Can you look up the measured Population Healthy Nuclei (%) of N#Cc1cc(F)cc(-c2nc(-c3ccc(F)cn3)no2)c1 for me?
77

Can you look up the measured Population Healthy Nuclei (%) of CC(=O)Nc1cccc2c1c(Sc1ccc(Cl)cc1)c(C)n2CC(=O)O [AZD1981] for me?
77

Can you look up the measured Population Healthy Nuclei (%) of Br.CS(=O)(=O)Nc1c(O)ccc2c1CCCC2C1=NCCN1 (centres undefined) for me?
79

Can you look up the measured Population Healthy Nuclei (%) of Cc1cccc(NC(=O)CN2CCC(c3ccccn3)CC2)c1.Cl.Cl for me?
70

Can you look up the measured Population Healthy Nuclei (%) of Cc1c(CC(=O)O)c2cccnc2n1Cc1ccc(S(C)(=O)=O)cc1C(F)(F)F [FEVIPIPRANT] for me?
75

Can you look up the measured Population Healthy Nuclei (%) of CCCCC(=O)N(Cc1ccc(-c2ccccc2-c2nnn[nH]2)cc1)[C@H](C(=O)O)C(C)C for me?
81

Can you look up the measured Population Healthy Nuclei (%) of CCCCCC(O)/C=C/[C@H]1C(=O)CC(O)C1C/C=C\CCCC(=O)O (some centres undefined) for me?
77

Can you look up the measured Population Healthy Nuclei (%) of Cc1cnc(-c2cc(N3CCN(C(=O)CCS(C)(=O)=O)CC3)ncc2Cl)c(C)c1 for me?
75
